B1: LINE1-full (parent)
chain: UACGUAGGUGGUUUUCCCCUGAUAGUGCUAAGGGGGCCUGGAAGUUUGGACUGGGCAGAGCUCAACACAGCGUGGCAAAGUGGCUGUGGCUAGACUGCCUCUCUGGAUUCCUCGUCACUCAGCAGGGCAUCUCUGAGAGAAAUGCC

Variants of: B1
Assay: self-cleavage, relative activity (ratio to wild type); higher = more cleavage; in vitro, sequencing; the parent is a self-cleaving ribozyme
self-cleavage below 1 gives FALSE; self-cleavage at or above it gives TRUE.

A57G A78G = FALSE

stdin: I'd appreciate it if you could say whether U12G A117G has self-cleavage at least equal to 1.
stdout: TRUE

stdin: Reported self-cleavage reaches at least 1 for A30G A124G ?
stdout: FALSE

stdin: Answer whether self-cleavage of U47C G127A is greater than or equal to 1.
stdout: TRUE

stdin: Hi team, for U29A , is the recorded self-cleavage at or above 1?
stdout: TRUE

stdin: Reported self-cleavage reaches at least 1 for U26A U143A ?
stdout: TRUE

stdin: Assess whether reported self-cleavage for U104A A107U sits at 1 or higher.
stdout: TRUE

stdin: Is self-cleavage for U23C A136U at or above 1?
stdout: TRUE

stdin: Quick check, self-cleavage >= 1? C103U
stdout: TRUE

stdin: Is reported self-cleavage greater than or equal to 1 here: G21A A57U
stdout: FALSE
